Can you tell me pIC50 for the items I'm about to list?
# assayed target: CtermHisTag-mEGFR Wild type (Homo sapiens, UniProt P00533)
# Sequence (P00533 25-1210): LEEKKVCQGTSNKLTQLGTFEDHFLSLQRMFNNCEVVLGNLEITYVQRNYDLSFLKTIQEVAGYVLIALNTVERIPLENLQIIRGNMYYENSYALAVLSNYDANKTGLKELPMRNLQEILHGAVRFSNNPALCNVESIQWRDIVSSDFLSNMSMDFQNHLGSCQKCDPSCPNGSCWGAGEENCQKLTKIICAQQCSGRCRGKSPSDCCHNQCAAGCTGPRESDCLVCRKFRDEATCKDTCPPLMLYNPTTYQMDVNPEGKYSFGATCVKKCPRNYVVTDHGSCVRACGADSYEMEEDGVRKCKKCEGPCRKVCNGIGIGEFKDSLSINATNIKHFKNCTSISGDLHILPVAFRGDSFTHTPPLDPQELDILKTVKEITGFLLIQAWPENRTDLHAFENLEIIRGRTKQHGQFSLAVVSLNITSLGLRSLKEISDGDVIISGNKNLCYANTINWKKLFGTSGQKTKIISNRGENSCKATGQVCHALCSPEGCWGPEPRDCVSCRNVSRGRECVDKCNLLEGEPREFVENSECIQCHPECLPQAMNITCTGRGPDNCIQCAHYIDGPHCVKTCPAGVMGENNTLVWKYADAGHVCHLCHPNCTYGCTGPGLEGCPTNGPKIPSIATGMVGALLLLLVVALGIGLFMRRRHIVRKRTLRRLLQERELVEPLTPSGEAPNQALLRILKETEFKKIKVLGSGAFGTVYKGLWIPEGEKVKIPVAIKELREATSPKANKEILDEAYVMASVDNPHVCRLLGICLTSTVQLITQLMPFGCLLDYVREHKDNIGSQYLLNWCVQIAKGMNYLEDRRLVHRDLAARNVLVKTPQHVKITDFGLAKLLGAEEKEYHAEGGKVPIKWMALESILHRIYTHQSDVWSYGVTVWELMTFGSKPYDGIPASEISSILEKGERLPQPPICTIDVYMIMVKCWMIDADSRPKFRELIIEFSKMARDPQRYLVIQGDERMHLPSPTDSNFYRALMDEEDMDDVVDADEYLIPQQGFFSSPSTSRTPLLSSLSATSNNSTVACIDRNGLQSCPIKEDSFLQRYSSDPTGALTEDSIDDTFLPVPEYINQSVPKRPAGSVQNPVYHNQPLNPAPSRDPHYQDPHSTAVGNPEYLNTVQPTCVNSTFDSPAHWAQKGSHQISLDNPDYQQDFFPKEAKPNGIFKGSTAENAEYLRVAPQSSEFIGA
pIC50: −log10 of the molar value.

C#Cc1cc(N2C(=O)OCC2COC)nc2nc(Nc3ccc(N4CCN(C)CC4)cc3)ncc12 (stereo not drawn) [Example 116] = 5.00 to 6.00
C#Cc1cc(NC(=O)NCc2ccnn2C)nc2nc(Nc3ccc(N4CCN(C)CC4)cc3)ncc12 [Example 48] = > 6.00
C#Cc1cc(N2C(=O)N(C)CC23CCCC3)nc2nc(Nc3ccc(N(C)C(=O)CN(C)C)cc3)ncc12 [Example 106] = 5.00 to 6.00
C#Cc1cc(OC)nc2nc(Nc3ccc(N4CCN(C)CC4)c(N(C)C)c3)ncc12 [Example 5] = < 5.00
C#Cc1cc(NC(=O)OC2CCCC2)nc2nc(Nc3ccc(N4CCN(C)CC4)cc3)ncc12 [Example 65] = < 5.00

# query: pIC50 | item C#Cc1cc(NC(=O)CCc2ccccc2)nc2nc(Nc3ccc(N4CCN(C)CC4)cc3)ncc12 [Example 32] | system: CtermHisTag-mEGFR Wild type (Homo sapiens, UniProt P00533)
5.00 to 6.00

---

# assayed target: CtermHisTag-mEGFR Triple Mutant - C797S, L858R, T790M (Homo sapiens, UniProt P00533, C797S/L858R/T790M)
# Sequence (P00533 25-1210 T790M/C797S/L858R): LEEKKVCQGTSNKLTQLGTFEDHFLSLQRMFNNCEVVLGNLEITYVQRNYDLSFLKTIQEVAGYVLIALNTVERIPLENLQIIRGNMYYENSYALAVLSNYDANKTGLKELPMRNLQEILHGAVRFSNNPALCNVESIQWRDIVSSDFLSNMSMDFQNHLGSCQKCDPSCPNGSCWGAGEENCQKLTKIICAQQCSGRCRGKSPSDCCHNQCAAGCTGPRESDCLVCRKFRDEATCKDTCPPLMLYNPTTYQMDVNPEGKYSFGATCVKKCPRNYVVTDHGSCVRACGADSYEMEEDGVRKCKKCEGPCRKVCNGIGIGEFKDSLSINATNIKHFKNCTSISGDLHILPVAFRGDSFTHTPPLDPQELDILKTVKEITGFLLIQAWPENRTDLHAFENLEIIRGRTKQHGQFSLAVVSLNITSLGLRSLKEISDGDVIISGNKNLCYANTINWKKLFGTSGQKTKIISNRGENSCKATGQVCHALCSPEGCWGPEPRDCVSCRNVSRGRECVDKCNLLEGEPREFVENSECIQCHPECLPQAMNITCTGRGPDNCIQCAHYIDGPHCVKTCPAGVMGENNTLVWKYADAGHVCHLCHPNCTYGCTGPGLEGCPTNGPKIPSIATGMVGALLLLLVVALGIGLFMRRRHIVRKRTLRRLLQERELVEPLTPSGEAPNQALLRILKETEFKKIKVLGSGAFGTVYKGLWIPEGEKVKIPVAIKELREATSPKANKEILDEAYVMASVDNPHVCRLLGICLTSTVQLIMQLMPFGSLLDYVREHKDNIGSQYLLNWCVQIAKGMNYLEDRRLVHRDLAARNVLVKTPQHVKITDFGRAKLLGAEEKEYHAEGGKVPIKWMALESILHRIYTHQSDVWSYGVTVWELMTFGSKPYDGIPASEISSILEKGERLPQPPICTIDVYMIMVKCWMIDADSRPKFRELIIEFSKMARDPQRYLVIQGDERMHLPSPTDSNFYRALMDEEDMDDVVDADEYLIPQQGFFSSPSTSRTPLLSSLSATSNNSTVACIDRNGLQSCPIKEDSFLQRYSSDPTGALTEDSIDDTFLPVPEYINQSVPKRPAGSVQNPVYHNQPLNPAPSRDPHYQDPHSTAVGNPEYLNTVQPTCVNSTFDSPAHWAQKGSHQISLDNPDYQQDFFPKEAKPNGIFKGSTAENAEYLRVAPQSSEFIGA
# assay remarks: TR-FRET probe displacement assay, EGFR triple mutant
# study conditions: T790M 1.25 nM, probe 100 nM, 30 mins room temperature
pIC50: −log10 of the molar value.
Can you tell me pIC50 for the items I'm about to list?

Solved entries:
C#Cc1cc(N(C)C(=O)NC2CCCC2)nc2nc(Nc3ccc(N4CCN(C)CC4)cc3)ncc12 = > 7.70
C#Cc1cc(OC2CC2)nc2nc(Nc3ccc(N4CCN(C)CC4)cc3)ncc12 = 6.00 to 7.00

Quick batch: pIC50 for everything below.
1. C#Cc1cc(N2C(=O)NCC2C2CCCC2)nc2nc(Nc3ccc(N4CCN(C)CC4)cc3)ncc12 (centres unmarked)
2. C#Cc1cc(OC)nc2nc(Nc3cccc(CN(C)C(C)=O)c3)ncc12

["7.00 to 7.70", "6.00 to 7.00"]

Quick batch: pIC50 for everything below.
1. C#Cc1cc(NC(=O)N(C)C)nc2nc(Nc3ccc(N4CCN(C)CC4)cc3)ncc12
2. C#Cc1cc(OC)nc2nc(Nc3cccc(CN(C)C)c3)ncc12
3. C#Cc1cc(N2C(=O)OC[C@@H]2C(C)C)nc2nc(Nc3ccc(N4CCN(C)CC4)cc3)ncc12
4. C#Cc1cc(N2C(=O)NCC23CCCC3)nc2nc(Nc3ccc(N(C)C(=O)CN(C)C)cc3)ncc12

1: 6.00 to 7.00; 2: 6.00 to 7.00; 3: > 7.70; 4: 7.00 to 7.70

---

Can you tell me IC50 for the items I'm about to list?
# assayed target: Phospho-EGFR (Tyr1068) in H1975 cells (Homo sapiens, UniProt P00533, L858R/T790M)
# Sequence (P00533 25-1210 T790M/L858R): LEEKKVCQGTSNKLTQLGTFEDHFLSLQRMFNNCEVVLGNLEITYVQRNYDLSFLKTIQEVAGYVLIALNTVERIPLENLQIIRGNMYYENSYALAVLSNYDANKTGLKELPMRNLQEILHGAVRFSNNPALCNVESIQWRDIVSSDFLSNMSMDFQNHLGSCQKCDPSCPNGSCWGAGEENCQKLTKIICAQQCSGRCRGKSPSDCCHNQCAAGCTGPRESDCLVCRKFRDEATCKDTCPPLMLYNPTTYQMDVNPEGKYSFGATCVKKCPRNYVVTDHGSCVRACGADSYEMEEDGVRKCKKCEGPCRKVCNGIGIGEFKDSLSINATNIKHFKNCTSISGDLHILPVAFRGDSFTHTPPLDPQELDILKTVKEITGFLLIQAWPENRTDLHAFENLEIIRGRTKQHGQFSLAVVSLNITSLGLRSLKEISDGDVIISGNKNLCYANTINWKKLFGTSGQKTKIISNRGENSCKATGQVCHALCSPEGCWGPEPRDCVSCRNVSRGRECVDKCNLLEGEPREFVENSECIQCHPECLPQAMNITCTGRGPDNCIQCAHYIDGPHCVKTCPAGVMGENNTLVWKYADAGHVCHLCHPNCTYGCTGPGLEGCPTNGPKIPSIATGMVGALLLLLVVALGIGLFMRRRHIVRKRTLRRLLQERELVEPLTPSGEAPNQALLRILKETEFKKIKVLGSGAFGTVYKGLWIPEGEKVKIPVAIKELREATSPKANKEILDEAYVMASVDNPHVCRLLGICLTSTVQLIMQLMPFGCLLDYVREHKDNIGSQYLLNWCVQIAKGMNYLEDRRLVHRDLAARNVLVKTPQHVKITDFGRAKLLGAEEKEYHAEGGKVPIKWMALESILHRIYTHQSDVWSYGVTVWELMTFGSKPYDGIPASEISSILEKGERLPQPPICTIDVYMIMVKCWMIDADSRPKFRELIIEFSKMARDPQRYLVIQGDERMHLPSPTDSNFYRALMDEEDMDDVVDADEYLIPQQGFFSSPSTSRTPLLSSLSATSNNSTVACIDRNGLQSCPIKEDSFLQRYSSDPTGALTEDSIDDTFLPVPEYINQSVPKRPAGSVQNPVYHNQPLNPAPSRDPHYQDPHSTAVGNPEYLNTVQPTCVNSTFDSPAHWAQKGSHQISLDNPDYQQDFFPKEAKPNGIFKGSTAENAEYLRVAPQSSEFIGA
# assay remarks: HTRF pEGFR/total EGFR assay in H1975 cells
# study conditions: compound 3 hours, ratio pEGFR/total EGFR

Solved entries:
C#Cc1cc(NC(=O)c2ccccc2)nc2nc(Nc3ccc(N4CCN(C)CC4)cc3)ncc12 = > 3 µM
C#Cc1cc(NC(=O)NC2CCCC2)nc2nc(Nc3ccc(N4CCN(C5COC5)CC4)cc3)ncc12 = < 0.5 µM
C#Cc1cc(NC(=O)NC2CCCC2)nc2nc(Nc3ccccc3N3CCC(CS(C)(=O)=O)CC3)ncc12 = > 3 µM
C#Cc1cc(NC(=O)OC2CCCC2)nc2nc(Nc3ccc(N4CCN(C)CC4)cc3)ncc12 = 1 to 3 µM
C#Cc1cc(N2C(=O)N(C)CC23CCCC3)nc2nc(Nc3ccc(OCCN(C)C)cc3)ncc12 = 1 to 3 µM

Quick batch: IC50 for everything below.
1. C#Cc1cc(OC2CC2)nc2nc(Nc3ccc(N4CCN(C)CC4)cc3)ncc12
2. C#Cc1cc(NC(=O)NC2CC2)nc2nc(Nc3ccc(N4CCN(C)CC4)cc3)ncc12
3. C#Cc1cc(NC(=O)N(C)C)nc2nc(Nc3ccc(N4CCN(C)CC4)cc3)ncc12
4. C#Cc1cc(NS(C)(=O)=O)nc2c1=CNC(Nc1ccc(N(C)CCN(C)C)cc1)N=2 (stereo not shown)
5. C#Cc1cc(NC(=O)NC2CN(S(C)(=O)=O)C2)nc2nc(Nc3ccc(N4CCN(C)CC4)cc3)ncc12
6. C#Cc1cc(-n2ccnc2)nc2nc(Nc3ccc(N4CCN(C)CC4)cc3)ncc12
7. C#Cc1cc(OC)nc2nc(Nc3ccc(N(C)CCN(C)C)cc3)ncc12

1: 1 to 3 µM; 2: < 0.5 µM; 3: > 3 µM; 4: > 3 µM; 5: > 3 µM; 6: 1 to 3 µM; 7: 1 to 3 µM

Quick batch: IC50 for everything below.
1. C#Cc1cc(NC(=O)NC2CCCC2)nc2nc(Nc3ccc(N(C)C(=O)CN4CCC4)cc3)ncc12
2. C#Cc1cc(NC(=O)NC2CCCC2)nc2nc(Nc3ccc(S(=O)(=O)N(C)CCN(C)C)cc3)ncc12
3. C#Cc1cc(N2C(=O)NCC23CCCC3)nc2nc(Nc3ccc(OCCN(C)C)cc3)ncc12

["> 3 µM", "< 0.5 µM", "1 to 3 µM"]

Return reported IC50; argument: "C#Cc1cc(N2CCCC2=O)nc2nc(Nc3ccc(N4CCN(C)CC4)cc3)ncc12"
1 to 3 µM

---

Can you tell me IC50 for the items I'm about to list?
# assayed target: Phospho-EGFR (Tyr1068) in H1975 C797S cells (Homo sapiens, UniProt P00533, C797S/L858R/T790M)
# Construct: endogenous in cells
# Sequence (P00533 25-1210 T790M/C797S/L858R): as the sequence (P00533 25-1210 T790M/C797S/L858R) above
# assay remarks: HTRF pEGFR/total EGFR assay in H1975 C797S cells
# study conditions: H1975 C797S cells (CRISPR), compound 3 hours, ratio pEGFR/total EGFR

Quick batch: IC50 for everything below.
1. C#Cc1cc(NC(=O)NC2CC2)nc2nc(Nc3ccc(N4CCN(C)CC4)cc3)ncc12
2. C#Cc1cc(NC(=O)NC2CCCC2)nc2nc(Nc3ccc(S(=O)(=O)N(C)C)cc3)ncc12
3. C#Cc1cc(Oc2ccccc2)nc2nc(Nc3ccc(N4CCN(C)CC4)cc3)ncc12
4. C#Cc1cc(OCCc2ccccc2)nc2nc(Nc3ccc(N4CCN(C)CC4)cc3)ncc12
5. C#Cc1cc(NC(=O)NC2CCCC2)nc2nc(Nc3cccc(N(C)[C@H]4C[C@@H](CS(C)(=O)=O)C4)c3)ncc12
6. C#Cc1cc(NC(=O)NC2CCOC2)nc2nc(Nc3ccc(N4CCN(C)CC4)cc3)ncc12 (stereo not shown)
7. C#Cc1cc(NC(=O)NC2CCCC2)nc2nc(Nc3ccccc3N3CCC(CS(C)(=O)=O)CC3)ncc12
8. C#Cc1cc(NC(=O)NC2CCCC2)nc2nc(Nc3cccc(N(C)[C@H]4C[C@H](CS(C)(=O)=O)C4)c3)ncc12

["< 0.5 µM", "> 3 µM", "> 3 µM", "> 3 µM", "< 0.5 µM", "< 0.5 µM", "> 3 µM", "< 0.5 µM"]

---

# assayed target: Phospho-EGFR (Tyr1068) in A431 cells (Homo sapiens)
# Construct: endogenous in cells
# assay remarks: HTRF pEGFR/total EGFR assay in A431 cells (EGF stimulated)
# study conditions: compound 2.5 hours then 100 ng/ml EGF 30 mins, ratio pEGFR/total EGFR
measured parameter: IC50

Solved entries:
C#Cc1cc(N2C(=O)OCC2C2CCCC2)nc2nc(Nc3ccc(N4CCN(C)CC4)cc3)ncc12 (stereo not shown) = > 3 µM
C#Cc1cc(OC)nc2nc(Nc3ccc(N4CCN(C)CC4)c(NC4CCC4)c3)ncc12 = > 3 µM
C#Cc1cc(NC(=O)NC2CCCC2)nc2nc(Nc3ccc(N4CCN(C5COC5)CC4)cc3)ncc12 = < 0.5 µM

From here, focus on the item given below.
# query: IC50 | item "C#Cc1cc(NC(=O)NC2CCCC2)nc2nc(Nc3cccc(N(C)[C@H]4C[C@H](CS(C)(=O)=O)C4)c3)ncc12" | system: Phospho-EGFR (Tyr1068) in A431 cells (Homo sapiens)
1 to 3 µM

---

Can you tell me IC50 for the items I'm about to list?
# assayed target: Phospho-EGFR (Tyr1068) in H1975 cells (Homo sapiens, UniProt P00533, L858R/T790M)
# assay remarks: HTRF pEGFR/total EGFR assay in H1975 cells
# study conditions: compound 3 hours, ratio pEGFR/total EGFR

Solved entries:
C#Cc1cc(NC(=O)NC2CCCC2)nc2nc(Nc3cccc(CN4CCC(CS(C)(=O)=O)C4)c3)ncc12 (stereo not shown) [Example 86] = > 3000 nM
C#Cc1cc(N2C(=O)N(C)CC23CCCC3)nc2nc(Nc3ccc(N(C)C(C)=O)cc3)ncc12 [Example 105] = > 3000 nM

Quick batch: IC50 for everything below.
1. C#Cc1cc(N2C(=O)OCC23CCCC3)nc2nc(Nc3ccc(N4CCN(C)CC4)cc3)ncc12 [Example 114]
2. C#Cc1cc(-n2cccc2)nc2nc(Nc3ccc(N4CCN(C)CC4)cc3)ncc12 [Example 36]
3. C#Cc1c(C)c(NC(=O)NC2CCCC2)nc2nc(Nc3ccc(N4CCN(C)CC4)cc3)ncc12 [Example 72]
4. C#Cc1cc(N2CCOC2=O)nc2nc(Nc3ccc(N4CCN(C)CC4)cc3)ncc12 [Example 71]
5. C#Cc1cc(NC(=O)NCC2COC2)nc2nc(Nc3ccc(N4CCN(C)CC4)cc3)ncc12 [Example 55]
6. C#Cc1cc(NC(=O)NC2CCCC2)nc2nc(Nc3cccc(CN4CC(CS(C)(=O)=O)C4)c3)ncc12 [Example 85]
7. C#Cc1cc(NC(=O)OCc2ccccc2)nc2nc(Nc3ccc(N4CCN(C)CC4)cc3)ncc12 [Example 67]
8. C#Cc1cc(N2C(=O)NCC2C(C)C)nc2nc(Nc3ccc(N4CCN(C)CC4)cc3)ncc12 (stereo not shown) [Example 64]

["< 500 nM", "1000 to 3000 nM", "500 to 1000 nM", "1000 to 3000 nM", "< 500 nM", "> 3000 nM", "> 3000 nM", "< 500 nM"]

Quick batch: IC50 for everything below.
1. C#Cc1cc(NC(=O)NCc2ccno2)nc2nc(Nc3ccc(N4CCN(C)CC4)cc3)ncc12 [Example 47]
2. C#Cc1cc(NC(=O)NC2CCCC2)nc2nc(Nc3ccccc3N3CCC(CS(C)(=O)=O)C3)ncc12 (stereo not shown) [Example 89]
3. C#Cc1cc(OCc2cscn2)nc2nc(Nc3ccc(N4CCN(C)CC4)cc3)ncc12 [Example 13]
4. C#Cc1cc(NC(=O)N[C@@H]2CCN(C(C)=O)C2)nc2nc(Nc3ccc(N4CCN(C)CC4)cc3)ncc12 [Example 52]
5. C#Cc1cc(N2C(=O)NCC23CCCC3)nc2nc(Nc3ccc(S(=O)(=O)N(C)CCN(C)C)cc3)ncc12 [Example 98]
6. C#Cc1cc(N2C(=O)OCC2C(C)C)nc2nc(Nc3ccc(N4CCN(C)CC4)cc3)ncc12 (stereo not shown) [Example 68]

1: 500 to 1000 nM; 2: > 3000 nM; 3: 1000 to 3000 nM; 4: > 3000 nM; 5: > 3000 nM; 6: < 500 nM

The values you see were collected from patent US20260176265A1.
